Recorded inhibition at 25 µM by entry
Target: GPR84 (Homo sapiens (Human))
Sequence (Q9NQS5 whole entry): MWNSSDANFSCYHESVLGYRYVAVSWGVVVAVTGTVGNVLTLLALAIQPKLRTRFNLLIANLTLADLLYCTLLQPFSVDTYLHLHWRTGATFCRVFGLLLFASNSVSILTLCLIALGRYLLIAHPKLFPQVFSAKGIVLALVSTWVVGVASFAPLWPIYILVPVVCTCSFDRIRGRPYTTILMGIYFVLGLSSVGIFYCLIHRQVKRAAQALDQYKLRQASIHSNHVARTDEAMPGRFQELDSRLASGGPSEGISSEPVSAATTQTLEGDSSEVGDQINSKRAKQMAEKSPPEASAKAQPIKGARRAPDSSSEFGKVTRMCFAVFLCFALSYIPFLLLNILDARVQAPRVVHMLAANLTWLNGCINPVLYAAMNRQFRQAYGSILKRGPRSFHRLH
Experiment: Gai biosensor BRET assay (GPR84-mediated activation of Gai, antagonist mode against agonist ZQ-16)
Type: cell-based
Settings: compound tested at 25 μM (concentration code G)

compound: O=c1nc(OCC2COCCO2)cc(-c2ccc(OCC(F)(F)F)cc2)[nH]1 (stereo not drawn)
inhibition at 25 µM: < 25%
--
compound: COc1cc(OCC2COCCO2)cc(-c2ccc(OCc3ccccn3)cc2C)n1 (stereo not drawn)
inhibition at 25 µM: 25 to 50%
--
compound: FC(F)(F)COc1ccc(-c2cc(OCC3COCCO3)cc(C(F)(F)F)c2)cc1 (stereo not drawn)
inhibition at 25 µM: < 25%
--
compound: COc1cc(NC(=O)C2COCCO2)cc(-c2ccc(C#CC3CC3)cc2)n1 (stereo not drawn)
inhibition at 25 µM: < 25%
--
compound: Cc1cc(C#CC2CC2)ccc1-c1cc(OCC2COCCO2)cc(Cl)n1 (stereo not drawn)
inhibition at 25 µM: < 25%

Look up inhibition at 25 µM with GPR84 (Homo sapiens (Human)) for this compound: Cc1ccc(-c2ccc(-c3cc(OCC4COCCO4)cc(Cl)n3)cc2)cn1 (stereo not drawn)
< 25%

Look up inhibition at 25 µM with GPR84 (Homo sapiens (Human)) for this compound: CCc1cc(OCC2COCCO2)cc(OCc2ccc(C#CC3CC3)cc2)n1 (stereo not drawn)
< 25%

Look up inhibition at 25 µM with GPR84 (Homo sapiens (Human)) for this compound: O=c1nc(OCC2COCCO2)cc2n1CCOc1cc(C#CC3CC3)ccc1-2 (stereo not drawn)
> 75%

Look up inhibition at 25 µM with GPR84 (Homo sapiens (Human)) for this compound: Cn1c(-c2ccc(C#CC3CC3)cc2)cc(OCC2COCCO2)cc1=O (stereo not drawn)
< 25%
